tested on: HCT-116; test: NCI tumour cell line growth inhibition, 48 h
Calls of active or inactive are those of the source. No stated cut-off is given here; in the data, active = GI50 up to about 1.1 µM and inactive = higher.
Parameter call: string, one of true (1) (active), false (0) (inactive)

These recorded examples may help you get a feel for the data.
# compound, system-under-test, cat
measured = [
    ("CCOC(=O)c1c(Sc2ccc([N+](=O)[O-])cc2[N+](=O)[O-])nc2c3ccccc3ccn12", "HCT-116", "false (0)"),
    ("N=C(N)N/N=C\\c1ccc(C2CCNCC2)cc1", "HCT-116", "false (0)"),
    ("Cc1nc2cccc(F)c2c(=O)n1C1CCCCNC1=O (configuration not stated)", "HCT-116", "false (0)"),
    ("O=C(O)c1cc(Cl)cc(NC(=O)C(Cl)Cl)c1Cl", "HCT-116", "false (0)"),
    ("CC(OC(C)(C)C)[C@H](NC(=O)OC(C)(C)C)C(=O)O (some centres not stated)", "HCT-116", "false (0)"),
]

How was CN(C)c1n/c(=N/Cc2cccs2)ss1 classified in this test? false (0)
